- subject of test: GCase (GBA) in human fibroblast cell line GM10915 harboring the L444P GBA mutation (Homo sapiens, UniProt P04062, L483P)
- Construct: Human fibroblast cell line GM10915 harboring the L444P GBA mutation; host or cells: GM10915 human fibroblasts
- Sequence (P04062 40-536 L483P): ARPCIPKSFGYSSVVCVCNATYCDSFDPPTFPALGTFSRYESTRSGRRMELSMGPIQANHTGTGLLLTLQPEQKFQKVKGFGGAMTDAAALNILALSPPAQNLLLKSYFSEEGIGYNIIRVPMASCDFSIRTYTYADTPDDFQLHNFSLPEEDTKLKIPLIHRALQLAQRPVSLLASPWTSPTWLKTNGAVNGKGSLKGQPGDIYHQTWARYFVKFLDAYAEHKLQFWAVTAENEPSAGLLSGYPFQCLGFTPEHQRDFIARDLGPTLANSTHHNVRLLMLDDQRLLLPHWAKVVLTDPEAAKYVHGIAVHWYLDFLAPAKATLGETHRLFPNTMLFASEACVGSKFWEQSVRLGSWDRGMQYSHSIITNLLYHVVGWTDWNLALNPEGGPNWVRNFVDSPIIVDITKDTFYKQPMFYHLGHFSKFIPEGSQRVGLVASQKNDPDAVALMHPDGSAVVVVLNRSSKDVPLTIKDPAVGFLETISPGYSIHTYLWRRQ
- assay: GCase activity assay (4-MUG substrate, normalised to crystal violet staining) in L444P GBA fibroblasts
- Type: cell-based
- recorded conditions: concentration giving 150% GCase activity (1.5-fold induction), 5 days exposure, 8-point dose range
experimental endpoint: GBA EC1.5 (µM)
Respond numerically; units are µM and should not be typed.

Worked cases, answers included:
CN1CC2(C)CN(CC3CON=C(C4(C)CCNCC4)O3)CC2(C)C1 (centres unmarked) :: 43
c1cncc(CC2(C3=NOCC(CN4CCCCC4)O3)CCNCC2)c1 (racemic) :: 27
CC1(C2=NOCC(CN3CCCCC3)O2)CCCNC1 (racemic) :: 6

Value lookup for GBA EC1.5; key = Cn1ccnc1CC1(C2=NOCC(CN3CCCCC3)O2)CCNCC1 (centres unmarked)
50

Value lookup for GBA EC1.5; key = CN1CCCC1C1=NOCC(CN2CCCCC2)O1 (centres unmarked)
50
